# Read-out: Lipoprotein lipase (LPL), LPL (gene 4023)
# assayInfo: LTEA_HepaRG_LPL: Life Technologies and Expression Analysis (LTEA) Assay for Lipoprotein lipase (LPL) using HepaRG (AID 2283515)
# conditionsUsed: mRNA level, 48 h; actives raise or lower the signal
The source made the active and inactive calls. The calls were made as follows: active = hit-call score of the fitted dose curve at least 0.9, where 1 is the maximum; inactive = score below 0.9.
Valid outcomes are listed here; reply with one: YES (active), NO (inactive)

Which outcome did this test record for the compound `CN(C)C=O` ? NO

Short answer needed: outcome of this test for `CC(=O)NC1(c2cccc(F)c2)CCN(CC[C@@]2(c3ccc(Cl)c(Cl)c3)CN(c3ccccc3)C(=O)CO2)CC1` ? YES

Could you check what this test reported for CCCCC(CC)COC(=O)CCCCC(=O)OCc1ccccc1 (stereo unspecified) ? NO

Give the logged outcome of this assay for the following compound: `NC(=O)N(O)[C@@H]1C=C[C@H](Oc2cccc(Oc3ccc(F)cc3)c2)C1` YES

Tell me the recorded outcome of this test for `CCCOC(=O)c1ccc(O)cc1` . NO

Which outcome was assigned to CCc1ccc(CCOc2ccc(CC3SC(=O)NC3=O)cc2)nc1 (stereo unspecified) in this test? YES

---

# Read-out: Pselectin, SELP (gene 6403)
# assayInfo: BSK_4H_Pselectin: BioMAP Diversity Plus: 4H Assay for Pselectin Biomarker Activity (AID 2283026)
# conditionsUsed: primary human endothelial cells (HUVEC); actives raise or lower the signal
Active and inactive are the calls of the source. The calls were made as follows: active = hit-call score of the fitted dose curve at least 0.9, where 1 is the maximum; inactive = score below 0.9.
Return exactly one item of active, inactive

Per the assay record, what outcome was assigned to COCC(C)O (configuration not stated) ? inactive

Returns: the outcome recorded for `O=[N+]([O-])c1ccc(O)cc1` in this assay. inactive

Recorded test outcome, item OC1CCC(C2CCCCC2)CC1 (configuration not stated) inactive

What was the test verdict on `CC(=O)NC1(c2cccc(F)c2)CCN(CC[C@@]2(c3ccc(Cl)c(Cl)c3)CN(c3ccccc3)C(=O)CO2)CC1` ? active

For `CCCCCCC(=O)O` , what call appears in the results of this test? inactive

Which outcome was assigned to `CCCCCCCCOC(=O)CCCCCCCCC(=O)OCCCCCCCC` in this test? inactive

What did this assay record as the result for CCc1nn(C2CCCCC2)c2cc(C3(C#N)CCC(C(=O)O)CC3)ccc12 (configuration not stated) ? active

Query: recorded result category for `Oc1cccc(O)c1` in this test inactive

What call does the record list for `CC(C)CCCCCCOC(=O)CCCCC(=O)OCCCCCCC(C)C` ? inactive

Field: outcome | Entry: `CN1CCN(c2ccccc2/C=C2\SCCN(c3ccc(Cl)c(Cl)c3)C2=O)CC1` active

Returns: the outcome recorded for `CC#C[C@]1(O)CC[C@H]2[C@@H]3CCC4=CC(=O)CCC4=C3[C@@H](c3ccc(N(C)C)cc3)C[C@@]21C` in this assay. active

Would you mind telling me which call this test gave CCc1ccc(CCOc2ccc(CC3SC(=O)NC3=O)cc2)nc1 (configuration not stated) ? inactive

---

# Read-out: growth arrest and DNA damage 45 (GADD45A), GADD45A (gene 1647)
# assayInfo: LTEA_HepaRG_GADD45A: Life Technologies and Expression Analysis (LTEA) Assay for growth arrest and DNA damage 45 (GADD45A) using HepaRG (AID 2283458)
# conditionsUsed: mRNA level, 48 h; actives raise or lower the signal
The source made the active and inactive calls. The calls were made as follows: active = hit-call score of the fitted dose curve at least 0.9, where 1 is the maximum; inactive = score below 0.9.
Result category, one only: 1 (active), -1 (inactive)

Name the outcome recorded for `CCCCCCCCCCCCN1CCCC1=O` in the assay. -1

Just curious, what result did `Oc1cc2ccccc2c2ccccc12` get here? -1

Dear colleague, could you share the recorded outcome for `CN1CCN(c2ccccc2/C=C2\SCCN(c3ccc(Cl)c(Cl)c3)C2=O)CC1` when you have a moment? -1

Field: outcome | Entry: `CCCOC(=O)c1ccc(O)cc1` -1

What did this assay record as the result for NC(=O)N1C(=O)C(C(=O)c2cc(Cl)cs2)c2cc(F)c(Cl)cc21 (centres undefined) ? 1

Could you check what this test reported for `Cc1cc(CCN2CCN(c3nsc4ccccc34)CC2)cc2c1NC(=O)CC2(C)C` ? -1

Outcome? `CC(=O)CC(C)(C)O` -1

Any idea what this test logged for `COC(=O)CCCCC(=O)OC` ? -1

Would you mind telling me which call this test gave `CCCCCCCCCCCCc1ccccc1S(=O)(=O)O` ? -1

Lab log entry: `O=C(OCCOCCOC(=O)c1ccccc1)c1ccccc1` — outcome as called in the assay? -1

Query: recorded result category for `OC1CCCCC1` in this test -1

Which outcome was assigned to CCCCC(CC)COC(=O)CCCCC(=O)OCC(CC)CCCC (centres undefined) in this test? -1

Hi, sorry to bother you, what did the test record for COCC(C)O (centres undefined) ? -1

Name the outcome recorded for COCC(C)OCC(C)O (centres undefined) in the assay. -1

These measurements were taken from PubChem BioAssay (EPA / NIEHS).
